Tested on: HeLa human cervical carcinoma cells
Assay: High-content analysis of mitotic arrest in HeLa cells
Type: cell-based
Settings: 20 hours treatment, average of four experiments ± SD
Structures can show the parent of a compound that is named as a salt.
Lab note: anything with Nuclear Condensation MDEC (minimum detectable effective concentration) below 10 nM is marked fulfilled; values at 10 nM or higher are marked not fulfilled.

Input: Record CCC(C)[C@H](NC(=O)CN(C)C)C(=O)N(C)[C@H](C[C@H](OC(C)=O)c1nc(C(=O)N[C@@H](Cc2ccccc2)C[C@H](C)C(=O)O)cs1)C(C)C (some centres unmarked) [WZY-III-64A] : is its Nuclear Condensation MDEC (minimum detectable effective concentration) strictly below 10 nM?
Output: not fulfilled

Input: Record CCC(C)[C@H](NC(=O)[C@H]1CCCCN1C)C(=O)N(C)[C@H](C[C@@H](OC(C)=O)c1nc(C(=O)N[C@@H](Cc2ccccc2)C[C@H](C)C(=O)O)cs1)C(C)C (some centres unmarked) [WZY-III-63C, trifluoroacetic acid salt] : is its Nuclear Condensation MDEC (minimum detectable effective concentration) strictly below 10 nM?
Output: fulfilled

Input: Record CCC(C)[C@H](NC(=O)CN(C)C)C(=O)N(C)[C@H](C[C@@H](OC(C)=O)c1nc(C(=O)N[C@@H](Cc2ccccc2)C[C@H](C)C(=O)O)cs1)C(C)C (some centres unmarked) [WZY-III-69A] : is its Nuclear Condensation MDEC (minimum detectable effective concentration) strictly below 10 nM?
Output: not fulfilled

Input: Record CC[C@]1(O)C[C@H]2CN(CCc3c([nH]c4ccccc34)[C@@](C(=O)OC)(c3cc4c(cc3OC)N(C=O)[C@H]3[C@@](O)(C(=O)OC)[C@H](OC(C)=O)[C@]5(CC)C=CCN6CC[C@]43[C@@H]65)C2)C1 [vincristine, reference compound] : is its Nuclear Condensation MDEC (minimum detectable effective concentration) strictly below 10 nM?
Output: fulfilled
